Assay: Microsomal stability, mouse liver microsomes
Assay type: in vitro ADME
Details: mouse, microsomes

[
  {
    "compound": "COc1cccc2[nH]c(C(=O)N[C@@H](CC(C)C)C(=O)N[C@H](C#N)C[C@@H]3CCCNC3=O)cc12 [AVI-8059, reference compound]",
    "unit_label": "min",
    "half-life at 1 μM": 10
  },
  {
    "compound": "CC(C)(C)[C@H](NC(=O)C(F)(F)F)C(=O)N1C[C@H]2[C@@H]([C@H]1C(=O)N[C@H](C#N)C[C@@H]1CCNC1=O)C2(C)C [nirmatrelvir, reference compound]",
    "unit_label": "min",
    "half-life at 1 μM": 15
  },
  {
    "compound": "COc1cccc2[nH]c(C(=O)N[C@@H](CC(C)C)C(=O)N[C@@H](C[C@@H]3CCCNC3=O)C(=O)CO)cc12 [AVI-8004, reference compound]",
    "unit_label": "min",
    "half-life at 1 μM": 12
  },
  {
    "compound": "N#C[C@H](C[C@@H]1CCCNC1=O)NC(=O)[C@H](CC1CC1)NC(=O)c1cc2cccc(Cl)c2[nH]1 [PBI-0451, reference compound]",
    "unit_label": "min",
    "half-life at 1 μM": 12
  }
]

---

Assay: Microsomal stability, human liver microsomes
Assay type: in vitro ADME
Details: human, microsomes

[
  {
    "compound": "COc1cccc2[nH]c(C(=O)N[C@@H](CC(C)C)C(=O)N[C@H](C#N)C[C@@H]3CCCNC3=O)cc12 [AVI-8059, reference compound]",
    "unit_label": "min",
    "half-life at 1 μM": 16
  },
  {
    "compound": "COc1cccc2[nH]c(C(=O)N[C@@H](CC(C)C)C(=O)N[C@@H](C[C@@H]3CCCNC3=O)C(=O)CO)cc12 [AVI-8004, reference compound]",
    "unit_label": "min",
    "half-life at 1 μM": 34
  },
  {
    "compound": "N#C[C@H](C[C@@H]1CCCNC1=O)NC(=O)[C@H](CC1CC1)NC(=O)c1cc2cccc(Cl)c2[nH]1 [PBI-0451, reference compound]",
    "unit_label": "min",
    "half-life at 1 μM": 11
  },
  {
    "compound": "CC(C)(C)[C@H](NC(=O)C(F)(F)F)C(=O)N1C[C@H]2[C@@H]([C@H]1C(=O)N[C@H](C#N)C[C@@H]1CCNC1=O)C2(C)C [nirmatrelvir, reference compound]",
    "unit_label": "min",
    "half-life at 1 μM": 40
  }
]

---

Assay: Microsomal stability, human liver microsomes
Assay type: in vitro ADME
Conditions: human liver microsomes, NADPH, 37° C.; read-out: Human Microsomes Half-life
Below, each of the molecules is paired with its reported log10 half-life at 1 μM value.
parameter_measured: log10 half-life at 1 μM (log10 of the value in h)

[
  {
    "test_smiles": "O=C(N[C@@H](CC1CC1)C(=O)N[C@@H](C[C@@H]1CCNC1=O)C(=O)CO)c1cc2cccc(Cl)c2[nH]1",
    "log10 half-life at 1 μM": 0.10
  },
  {
    "test_smiles": "O=C(N[C@@H](CC1CC1)C(=O)N[C@@H](C[C@@H]1CCCNC1=O)C(=O)CO)c1cc2cc(F)cc(F)c2[nH]1",
    "log10 half-life at 1 μM": -0.12
  },
  {
    "test_smiles": "O=C(N[C@@H](CC1CC1)C(=O)N[C@@H](C[C@@H]1CCCNC1=O)C(=O)CO)c1cc2cccc(Cl)c2[nH]1",
    "log10 half-life at 1 μM": -0.36
  },
  {
    "test_smiles": "CC(C)[C@H](N)C(=O)OCC(=O)[C@H](C[C@@H]1CCCNC1=O)NC(=O)[C@H](CC1CC1)NC(=O)c1cc2cc(F)cc(F)c2[nH]1.Cl",
    "log10 half-life at 1 μM": -1.00
  },
  {
    "test_smiles": "O=C(N[C@@H](CC1CC1)C(=O)N[C@@H](C[C@@H]1CCCNC1=O)C(=O)CO)c1cc2cccc(F)c2[nH]1",
    "log10 half-life at 1 μM": 0.09
  }
]
